Values compiled from patent US20250090507A1.

assay: Phase 1 study (NCT04249843): plasma pharmacokinetics of Compound A; type: in vivo, human; conditions: human, plasma, oral, 60 mg, C1D1, Mean (%CV), patient 101-011 excluded; read-out: AUC8 h
ASSAY ENDPOINT: AUC(0-t) (ng·h/mL)
Give bare numbers, in ng·h/mL.

Req: Can you share its AUC(0-t)? I mean this compound: O=C1CCc2c(Oc3ccc4c(c3)[C@H]3[C@H](NC(=O)Nc5cc(F)c(F)cc5F)[C@H]3O4)ccnc2N1
Resp: 4930

---

assay: Phase 1 study (NCT04249843): plasma pharmacokinetics of Compound A; type: in vivo, human; conditions: human, plasma, oral, 60 mg, 60 mg QD, C2D1, patient 201-011 (excluded from C2D1 summary, extended dose interruption)
ASSAY ENDPOINT: Cmax (ng/mL)
Numbers only, in ng/mL.

Req: Which measured Cmax value corresponds to O=C1CCc2c(Oc3ccc4c(c3)[C@H]3[C@H](NC(=O)Nc5cc(F)c(F)cc5F)[C@H]3O4)ccnc2N1 ?
Resp: 5230

---

assay: Phase 1 study (NCT04249843): plasma pharmacokinetics of Compound A; type: in vivo, human; settings: human, plasma, oral, 40 mg, C1D1, patient 102-012; read-out: AUC24 h
ASSAY ENDPOINT: AUC(0-t) (ng·h/mL)
One number for each entry, in ng·h/mL.

Req: Could you share which AUC(0-t) value was measured for O=C1CCc2c(Oc3ccc4c(c3)[C@H]3[C@H](NC(=O)Nc5cc(F)c(F)cc5F)[C@H]3O4)ccnc2N1 ?
Resp: 12300

---

test: Phase 1 study (NCT04249843): plasma pharmacokinetics of Compound A; format: in vivo, human; conditions: human, plasma, oral, 10 mg, C1D1, Mean (%CV); read-out: AUC24 h
ASSAY ENDPOINT: AUC(0-t) (ng·h/mL)
Answers are plain numbers, in ng·h/mL.

Req: Entry under review: O=C1CCc2c(Oc3ccc4c(c3)[C@H]3[C@H](NC(=O)Nc5cc(F)c(F)cc5F)[C@H]3O4)ccnc2N1 . Reported AUC(0-t)?
Resp: 3140

---

test: Phase 1 study (NCT04249843): plasma pharmacokinetics of Compound A; assay type: in vivo, human; settings: human, plasma, oral, 40 mg, C1D1, patient 102-012
ASSAY ENDPOINT: Cmax (ng/mL)
One number for each entry, in ng/mL.

Req: Consider the compound O=C1CCc2c(Oc3ccc4c(c3)[C@H]3[C@H](NC(=O)Nc5cc(F)c(F)cc5F)[C@H]3O4)ccnc2N1 and give its measured Cmax.
Resp: 789

---

assay: Phase 1 study (NCT04249843): plasma pharmacokinetics of Compound A; format: in vivo, human; conditions: human, plasma, oral, 40 mg, 40 mg QD, C2D1, patient 202-012; read-out: AUC8 h
ASSAY ENDPOINT: AUC(0-t) (ng·h/mL)
One number for each entry, in ng·h/mL.

Req: I am curious: what AUC(0-t) value has been reported for O=C1CCc2c(Oc3ccc4c(c3)[C@H]3[C@H](NC(=O)Nc5cc(F)c(F)cc5F)[C@H]3O4)ccnc2N1 ?
Resp: 15400

---

assay: Phase 1 study (NCT04249843): plasma pharmacokinetics of Compound A; format: in vivo, human; conditions: human, plasma, oral, 40 mg, C1D1, Mean (%CV); read-out: AUC24 h
ASSAY ENDPOINT: AUC(0-t) (ng·h/mL)
Give bare numbers, in ng·h/mL.

Req: GET /values?readout=AUC(0-t)&item= O=C1CCc2c(Oc3ccc4c(c3)[C@H]3[C@H](NC(=O)Nc5cc(F)c(F)cc5F)[C@H]3O4)ccnc2N1 [Compound A]
Resp: 12100
